# test_summary: 2-deoxyribose oxidative degradation assay (hydroxyl radical formation)
# condition_notes: chelator 0-400 μM, 200 μM H2O2, 10 μM FeCl3, 2 mM ascorbic acid, 15 mM deoxyribose, pH 7.4, 60 min at 37° C.
value_kind: effect of chelator concentration on deoxyribose degradation, A/Ao at 532 nm

CC(=O)N(O)CCCCCNC(=O)CCC(=O)N(O)CCCCCNC(=O)CCC(=O)N(O)CCCCCN | decrease
O=C(NN=Cc1ccccc1O)c1ccncc1 [SIH, salicylaldehyde isonicotinoyl hydrazone] | decrease
